# System: A375P F11s tumor cells
# Assay Notes: Method C: Cell Growth Inhibition Assay (CellTiter-Glo), A375P F11s
# Format: cell-based
# Setup Conditions: Homo sapiens, 72 h, 3 days, 4-parameter fit
Structures can show the parent of a compound that is named as a salt.
Task for the reader: assign each of the following compounds its reported IC50.

CN(C)CCOc1cccc(Nc2nccc(-c3sc(N)nc3-c3cccc(NC(=O)c4c(F)cccc4F)c3)n2)c1 : 0.1 to 1 µM
COc1ccc(Nc2nccc(-c3sc(N)nc3-c3cccc(NC(=O)c4c(F)cccc4F)c3)n2)cc1OCCN(C)C : 0.1 to 1 µM
O=C(Nc1cccc(-c2ncsc2-c2ccnc(Nc3cccc(CN4CCCC4)c3)n2)c1)c1c(F)cccc1F : > 1 µM
CN(C)CCOc1ccc(Nc2nccc(-c3sc(N(C)C)nc3-c3cccc(NC(=O)c4c(F)cccc4F)c3)n2)cc1 : > 1 µM
Cc1nc(-c2cccc(NC(=O)c3c(F)cccc3F)c2)c(-c2ccnc(Nc3ccc(OC4CCN(C)CC4)c(F)c3)n2)s1 : 0.1 to 1 µM

For the 2 compounds below, give their IC50 values.
1. CCNc1nc(-c2cccc(NC(=O)c3c(F)cccc3F)c2)c(-c2ccnc(Nc3ccc(CCN4CCCC4)c(F)c3)n2)s1 [Example 26, trifluoroacetate]
2. CN(C)c1nc(-c2cccc(NC(=O)c3c(F)cccc3F)c2)c(-c2ccnc(Nc3cccc(CN4CCCC4)c3)n2)s1

(A)
0.1 to 1 µM
0.1 to 1 µM
